- Tested on: high level vancomycin resistant E. faecium (vanA) ATCC 51559
- test-method-notes: microbe, parasite or virus in culture
- measurement-context: ATCC 51559
Bridge positions count the residues as written; N and C are the ends. Square brackets hold non-standard residues; d marks the D form. Peptide text beside a SMILES is read from it.
Kindly state MIC VRE (vanA) for each of the entries shown.

[
  {
    "compound": "CC[C@@H](C)[C@H]1NC(=O)[C@@H](CO)NC(=O)[C@H](N)CSSC[C@H](C(N)=O)NC(=O)[C@@H](Cc2c[nH]cn2)NC(=O)[C@@H]([C@H](C)O)NC(=O)[C@@H](CC(C)C)NC(=O)[C@@H](CO)NC(=O)[C@@H](CO)NC1=O [P11, CSISSLTHC] (H-[dC][dS][dI][dS][dS][dL][dT][dH][dC]-NH2; disulfide 1-9)",
    "target-of-assay": "high level vancomycin resistant E. faecium (vanA) ATCC 51559",
    "MIC VRE (vanA)": ">256 µg/mL"
  }
]

Field: next compound
Which MIC VRE (vanA) reading was recorded for the compound CC(C)C[C@H]1NC(=O)[C@H](N)CSSC[C@H](C(N)=O)NC(=O)[C@@H]([C@H](C)O)NC(=O)[C@@H](C)NC(=O)CNC(=O)[C@@H]([C@H](C)O)NC(=O)[C@@H](CO)NC(=O)[C@@H](Cc2c[nH]c3ccccc23)NC1=O [P12, CLWSTGATC] (H-[dC][dL][dW][dS][dT]G[dA][dT][dC]-NH2; disulfide 1-9) ?
>256 µg/mL
